Assay: Toxicity liver stage against HepG2, at 10uM
Assay type: cell-based
Parameters: test concentration 10 uM, cell line HepG2-A16-CD81EGFP
Conditions: human, HepG2-A16-CD81EGFP cells; read-out: INHIBITION
MEASUREMENT LABEL: cytotoxicity at 10 µM (%)
Answers are plain numbers, in %.

Below are worked cases with known answers.
# COMPOUND, NUMERIC RESULT
measured = [
    ("Cc1cnc(C(C)(C)NC(=O)NCc2cccnc2OC(C)C)s1", 8.46),
    ("CCC(NC(=O)CC(F)(F)F)c1ccccc1OCC(=O)N1CCCC1 (configuration not stated)", 0.145),
    ("O=C(CSc1nnc2n1N=CN(c1ccccc1)C2)c1ccccc1", 9.11),
    ("OCC1(O)CCN(c2ccnc3c(C(F)(F)F)cccc23)CC1", -14.8),
    ("CNC(=O)NCC(=O)N1CCCC1Cc1cccc(F)c1 (configuration not stated)", -2.59),
]

Hey, quick one: what's cytotoxicity at 10 µM for each of these?
1. CCC[C@@H]1CN(c2ncnc3sccc23)C[C@H]1C(=O)O
2. N#Cc1ccc(CN2CCN(C(=O)CCn3cncn3)CC2)cc1
3. COc1ccc(CN2C[C@H](N3CCCC3=O)[C@@H]3OCCC[C@@H]32)cc1
4. CC(=O)c1cc2c(=O)[nH]c(=O)n(C)c2nc1C
5. CC(=O)N1CCc2c(nc(N(C)C)nc2NCCCn2ccnc2)C1

1.96
-7.06
9.51
-2.89
-7.28

Hey, quick one: what's cytotoxicity at 10 µM for each of these?
1. COCCNS(=O)(=O)c1ccc(Cl)c(C(=O)N(C)Cc2ccsc2)c1
2. O=c1cc(N2CCCCC2)cnn1C[C@H](O)CO

1: -1.39; 2: 2.04

---

I'd be grateful if you could share measured cytotoxicity at 10 µM for these entries.
Test: Toxicity liver stage against HepG2, at 10uM
Format: cell-based
Design: test concentration 10 uM, cell line HepG2-A16-CD81EGFP
Settings: human, HepG2-A16-CD81EGFP cells; read-out: INHIBITION
One number for each entry, in %.

Below are worked cases with known answers.
# COMPOUND, MEASUREMENT LABEL, NUMERIC RESULT
measured = [
    ("Cc1cnc(CN(Cc2ccccc2)CC2CCOCC2)cn1", "cytotoxicity at 10 µM", 15.6),
    ("CCN1CCOCC2(CCCN(C(=O)c3cnccn3)C2)C1 (stereo unspecified)", "cytotoxicity at 10 µM", 6.21),
    ("Cc1cnc(C(=O)N2Cc3cc(Cl)ccc3OC3(CCOCC3)C2)cn1", "cytotoxicity at 10 µM", -37.9),
    ("Cc1nn(C(C)(C)C)c(C)c1C(=O)NCC1(C(N)=O)CCOCC1", "cytotoxicity at 10 µM", 3.28),
    ("CN(C)Cc1nnc2n1CCCN(C(=O)c1c[nH]cn1)C2", "cytotoxicity at 10 µM", 3.77),
    ("CNC(=O)COc1c(F)cc(Br)cc1C(C)=O", "cytotoxicity at 10 µM", 1.44),
    ("COc1ccc(CN2C[C@H](OCC3CCOCC3)[C@H]3COC[C@H]32)cc1", "cytotoxicity at 10 µM", -9.78),
    ("O=C(O)[C@]12CCCN(C3CCOC3)C[C@H]1CN(c1ncccn1)C2 (stereo partly specified)", "cytotoxicity at 10 µM", -97.4),
]

Hey, quick one: what's cytotoxicity at 10 µM for each of these?
1. O=C(NCC1(N2CCOCC2)CCSC1)Nc1cn[nH]c1 (stereo unspecified)
2. Cc1nc(CN2CCCC(N(C)Cc3cnc(C)s3)C2)no1 (stereo unspecified)

1: 9.37; 2: 2.76

Hey, quick one: what's cytotoxicity at 10 µM for each of these?
1. NC(=O)c1cc(NC(=O)NCCc2cc(F)cc(F)c2)ccc1F
2. CN(Cc1cccnc1)[C@@H]1CN(Cc2cnn(C)c2)[C@@H]2CCCO[C@H]12
3. CN(C)CCN1CCC2(CCN(C(=O)c3cccnc3)CC2)C1=O
4. COc1cc(C(=O)N(CCC#N)Cc2ccccn2)cc(OC)c1C
5. CN(C)CC1CN(Cc2nc(-c3cccnc3)no2)CCO1 (stereo unspecified)
6. CCOc1ccc(NC(=O)Cc2cc(C)[nH]n2)cc1CO

1. -9.58
2. -2.1
3. 2.61
4. -15.1
5. -2.03
6. 0.335

Hey, quick one: what's cytotoxicity at 10 µM for each of these?
1. CCCc1noc(CCC(=O)N2CCN(C)CC2c2ccccc2)n1 (stereo unspecified)
2. CN(Cc1ccco1)Cc1ccccc1CNC(=O)c1cc[nH]n1
3. O=C(c1nc(=O)[nH][nH]1)N1CCCC(c2cc(C(F)(F)F)[nH]n2)C1 (stereo unspecified)
4. O=C(Cn1ccnc1)N1C[C@@H]2CC[C@H](Oc3ccccc3F)[C@@H]2C1
5. COc1ccc(-n2nnc(C(=O)O)c2-c2ccccn2)cc1
6. CC(NC(=O)NC1CCN(CC2CCCC2)CC1)c1nccs1 (stereo unspecified)
7. CC(C)N(CC(N)=O)Cc1cccc(Br)c1

1. -7.47
2. -8.11
3. -12.3
4. -28.9
5. 13.7
6. 3.2
7. -6.93

Hey, quick one: what's cytotoxicity at 10 µM for each of these?
1. CCS(=O)(=O)c1ncc(CN(C)Cc2ccccn2)n1CCOC
2. CCS(=O)(=O)N1CCC2(CC1)CC[C@@]1(C(=O)NC)CN(C(C)=O)C[C@@H]21

[-13.3, 6.1]

Hey, quick one: what's cytotoxicity at 10 µM for each of these?
1. CNS(=O)(=O)Cc1ccc(CNC(=O)c2ccc(C)[nH]c2=O)cc1
2. Cc1n[nH]c(C2CN(C(=O)c3ccnc(C4CC4)n3)CCO2)n1 (stereo unspecified)
3. CC(=O)N1CCCC1c1cccc(Cc2ccccc2F)n1 (stereo unspecified)
4. CCn1cc(SCC(=O)N2CCCC(O)(CO)C2)c2ccccc21 (stereo unspecified)
5. NC(=O)c1cnn2c1NCC(CNCCc1ccco1)C2 (stereo unspecified)
6. Cc1n[nH]c(C)c1C1CCCN1C(=O)NC(C)(C)C (stereo unspecified)

1: -3.3; 2: 1.85; 3: -1.44; 4: 6.37; 5: 1.46; 6: -4.27
